Test system: human primary pancreatic epithelial cells (HPDE, ACBRI 515)
assay: Cell growth inhibition, normal pancreatic epithelial cells
Type: cell-based
condition.label: 24 h, read-out: IC50 for cell growth inhibition, Pancreatic Epithelial HPDE (ACBRI 515)
pIC50: −log10 of the molar value.
readout.kind: pIC50

## Task Report pIC50 for CC1=C(CC(=O)Oc2ccc(OC(=O)CCCO[N+](=O)[O-])c(C(=O)Oc3ccc(-c4cc(=S)ss4)cc3)c2)c2cc(F)ccc2/C1=C\c1ccc([S+](C)[O-])cc1 (stereo not shown) please.
## Result < 4.60

Each recorded value in this set is attributed to paper PMC3835719.
